B1: glmS ribozyme (parent)
chain: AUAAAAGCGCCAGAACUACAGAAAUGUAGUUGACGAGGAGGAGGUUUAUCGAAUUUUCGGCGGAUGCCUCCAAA

variants of: B1; assay: self-cleavage kobs at 2500 uM GlcN6P; higher = faster cleavage; RNA array; conditions: with glucosamine-6-phosphate
Fewer inactive variants are shown than the library holds.
experimentalEndpoint: self-cleavage kobs at 2500 uM GlcN6P

G9A U65G C71G	< 1e-05 s⁻¹

Incoming: Value lookup for self-cleavage kobs at 2500 uM GlcN6P; key = C10U C11A G41A U55C C58G
Outgoing: < 1e-05 s⁻¹
